- assayed system: Rho-associated protein kinase 1 (Homo sapiens, UniProt Q13464)
- Sequence (Q13464 whole entry, the tested form may be a part): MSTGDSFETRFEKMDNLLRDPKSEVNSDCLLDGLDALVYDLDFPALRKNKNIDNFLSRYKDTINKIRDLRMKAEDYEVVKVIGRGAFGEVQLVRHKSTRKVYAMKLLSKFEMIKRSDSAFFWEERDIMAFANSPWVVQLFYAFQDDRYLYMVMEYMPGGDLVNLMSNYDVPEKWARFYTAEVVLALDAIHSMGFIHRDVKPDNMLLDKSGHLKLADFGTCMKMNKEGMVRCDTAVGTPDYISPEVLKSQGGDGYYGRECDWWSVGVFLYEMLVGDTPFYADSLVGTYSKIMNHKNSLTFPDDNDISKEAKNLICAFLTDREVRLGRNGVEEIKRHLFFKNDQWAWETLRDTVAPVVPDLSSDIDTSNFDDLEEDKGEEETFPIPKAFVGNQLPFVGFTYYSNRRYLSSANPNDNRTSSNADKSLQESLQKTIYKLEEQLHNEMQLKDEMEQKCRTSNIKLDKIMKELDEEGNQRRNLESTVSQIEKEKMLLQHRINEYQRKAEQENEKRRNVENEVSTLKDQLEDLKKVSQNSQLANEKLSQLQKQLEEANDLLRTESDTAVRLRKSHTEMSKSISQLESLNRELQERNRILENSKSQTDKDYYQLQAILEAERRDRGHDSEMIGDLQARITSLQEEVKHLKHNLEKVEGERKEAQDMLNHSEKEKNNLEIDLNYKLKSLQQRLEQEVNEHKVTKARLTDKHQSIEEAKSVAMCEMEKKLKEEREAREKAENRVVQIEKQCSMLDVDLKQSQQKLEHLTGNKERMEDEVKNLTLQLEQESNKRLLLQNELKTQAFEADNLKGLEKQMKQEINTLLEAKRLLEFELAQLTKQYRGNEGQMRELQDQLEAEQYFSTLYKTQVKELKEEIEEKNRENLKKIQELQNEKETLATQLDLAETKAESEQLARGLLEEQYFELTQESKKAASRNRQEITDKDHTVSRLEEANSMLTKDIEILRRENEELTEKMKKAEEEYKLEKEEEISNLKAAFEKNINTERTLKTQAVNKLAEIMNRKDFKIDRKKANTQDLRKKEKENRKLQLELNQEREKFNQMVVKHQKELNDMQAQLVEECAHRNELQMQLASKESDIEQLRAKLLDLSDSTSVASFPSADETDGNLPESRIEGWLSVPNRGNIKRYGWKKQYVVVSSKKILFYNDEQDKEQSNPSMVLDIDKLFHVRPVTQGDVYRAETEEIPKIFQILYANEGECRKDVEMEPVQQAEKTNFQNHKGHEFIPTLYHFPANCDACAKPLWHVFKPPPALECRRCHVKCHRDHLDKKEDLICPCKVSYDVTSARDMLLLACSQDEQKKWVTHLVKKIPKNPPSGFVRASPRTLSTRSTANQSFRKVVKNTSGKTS
- protocol notes: Inhibition of recombinant human GST-tagged ROCK1 (1 to 535 residues) using myelin basic protein as substrate incubated for 30 mins by ADP-Glo assay
measure: pIC50
Answers are plain numbers, as −log10 of the molar value.

Suppose we examine the compound `COc1nc(N[C@H]2CC[C@H](N)CC2)c(F)cc1C(N)=O` ; what pIC50 value has been reported?
8.00

---

- assayed system: Rho-associated protein kinase 1 (Homo sapiens, UniProt Q13464)
- protocol notes: Inhibition of human ROCK1 using KEAKEKRQEQIAKRRRLSSLRASTSKSGGSQK as substrate incubated for 20 mins in presence of [gamma33P]ATP by filter binding method
measure: IC50 (nM)
Give bare numbers, in nM.

Suppose we examine the compound `COc1c(B(O)O)cccc1-c1nc2ccc3[nH]ncc3c2c2c1CCC2` ; what IC50 value has been reported?
1.22

---

- protocol notes: Cytotoxicity against human MDA-MB-231 cells assessed as cell viability at 10 uM incubated for 12 hrs by CellTiter-Blue assay relative to control
- Assay type: cell-based
- particulars: read-out: Activity
measure: viability at 12 h, 10 µM

Suppose we examine the compound `COc1c(B(O)O)cccc1-c1nc2ccc3[nH]ncc3c2c2c1CCC2` ; what viability at 12 h, 10 µM value has been reported?
75 to 80%

---

- assayed system: Rho-associated protein kinase 2 (Homo sapiens)
- Sequence (O75116 whole entry, looked up): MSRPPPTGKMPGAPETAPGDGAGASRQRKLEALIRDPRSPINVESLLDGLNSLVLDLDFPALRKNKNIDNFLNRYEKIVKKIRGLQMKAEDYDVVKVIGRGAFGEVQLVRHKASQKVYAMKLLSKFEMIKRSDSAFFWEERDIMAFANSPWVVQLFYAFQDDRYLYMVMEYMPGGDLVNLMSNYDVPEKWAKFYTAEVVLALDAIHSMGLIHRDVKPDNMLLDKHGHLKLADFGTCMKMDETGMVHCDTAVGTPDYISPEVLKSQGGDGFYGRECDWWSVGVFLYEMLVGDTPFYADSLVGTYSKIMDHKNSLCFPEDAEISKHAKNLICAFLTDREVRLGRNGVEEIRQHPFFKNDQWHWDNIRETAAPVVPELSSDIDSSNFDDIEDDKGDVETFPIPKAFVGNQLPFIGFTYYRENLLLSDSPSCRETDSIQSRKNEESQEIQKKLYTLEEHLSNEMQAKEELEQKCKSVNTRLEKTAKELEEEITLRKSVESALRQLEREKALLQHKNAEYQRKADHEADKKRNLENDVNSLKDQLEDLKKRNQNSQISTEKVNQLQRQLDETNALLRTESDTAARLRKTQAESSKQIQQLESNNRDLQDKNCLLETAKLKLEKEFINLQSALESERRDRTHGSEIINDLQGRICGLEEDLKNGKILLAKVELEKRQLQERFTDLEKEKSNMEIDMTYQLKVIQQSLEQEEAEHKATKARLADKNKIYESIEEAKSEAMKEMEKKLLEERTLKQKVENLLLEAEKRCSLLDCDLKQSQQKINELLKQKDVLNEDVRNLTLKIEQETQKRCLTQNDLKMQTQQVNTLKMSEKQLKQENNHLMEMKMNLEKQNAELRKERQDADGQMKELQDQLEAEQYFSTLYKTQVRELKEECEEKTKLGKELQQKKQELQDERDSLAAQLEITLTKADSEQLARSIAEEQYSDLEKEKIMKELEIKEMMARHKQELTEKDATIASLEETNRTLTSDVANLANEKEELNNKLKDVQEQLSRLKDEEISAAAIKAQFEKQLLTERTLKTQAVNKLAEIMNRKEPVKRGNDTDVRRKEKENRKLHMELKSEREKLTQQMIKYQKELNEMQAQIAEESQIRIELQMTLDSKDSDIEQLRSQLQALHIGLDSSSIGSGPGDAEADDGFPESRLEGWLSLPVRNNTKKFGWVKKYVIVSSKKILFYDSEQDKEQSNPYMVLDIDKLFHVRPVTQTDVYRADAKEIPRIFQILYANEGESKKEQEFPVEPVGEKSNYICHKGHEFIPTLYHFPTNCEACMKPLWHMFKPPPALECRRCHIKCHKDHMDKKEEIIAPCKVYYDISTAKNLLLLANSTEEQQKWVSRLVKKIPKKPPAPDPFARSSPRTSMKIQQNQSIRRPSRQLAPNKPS
- protocol notes: Inhibition of active ROCK2 (R11-11G) (unknown origin) at 100 nM using S6K as substrate incubated for 3 hrs by ADP-Glo kinase assay relative to control
The source made the active and inactive calls. No cut-off for these calls is given here.
measure: inhibition

Recorded inhibition, per entry:
molecule: OB(O)c1ccc(-c2cc(-c3ccc(F)c(Cl)c3)c3c(ccc4[nH]ncc43)n2)cc1F
assayed system: Rho-associated protein kinase 2 (Homo sapiens)
inhibition: 10 to 15%

molecule: COc1c(B(O)O)cccc1-c1nc2ccc3[nH]ncc3c2c2c1CCC2
assayed system: Rho-associated protein kinase 2 (Homo sapiens)
inhibition: 59%

molecule: COc1c(B(O)O)cccc1-c1nc2ccc3[nH]ncc3c2cc1-c1ccncc1
assayed system: Rho-associated protein kinase 2 (Homo sapiens)
inhibition: Active

molecule: COc1ccc(-c2nc3ccc4[nH]ncc4c3c3c2CCCC3)cc1B(O)O
assayed system: Rho-associated protein kinase 2 (Homo sapiens)
inhibition: Active

molecule: OB(O)c1cccc(-c2nc3ccc4[nH]ncc4c3c3c2CCCC3)c1F
assayed system: Rho-associated protein kinase 2 (Homo sapiens)
inhibition: Active

Batch lookup, inhibition per entry.
1. Cc1n[nH]c2ccc3nc(-c4sccc4B(O)O)c4c(c3c12)CCC4
2. OB(O)c1cccc(-c2nc3ccc4[nH]ncc4c3cc2-c2ccc(F)c(Cl)c2)c1F
3. COc1c(B(O)O)cccc1-c1cc(-c2ccc(F)c(Cl)c2)c2c(ccc3[nH]ncc32)n1
4. OB(O)c1ccc(-c2nc3ccc4[nH]ncc4c3c3c2CCCC3)o1
5. OB(O)c1cccc(-c2nc3ccc4[nH]ncc4c3cc2-c2ccccc2)c1F
6. COc1c(B(O)O)cccc1-c1nc2ccc3[nH]ncc3c2cc1-c1ccc(Cl)cc1
7. c1nc2ccc3[nH]ncc3c2c2c1CCCC2
8. COc1c(B(O)O)cccc1-c1nc2ccc3[nH]nc(C)c3c2c2c1CCC2

1. Active
2. Active
3. 10 to 15%
4. Active
5. Active
6. Active
7. 10 to 15%
8. 32%

Batch lookup, inhibition per entry.
1. COc1c(B(O)O)cccc1-c1cc(-c2cc(F)cc(F)c2)c2c(ccc3[nH]ncc32)n1
2. c1csc(-c2nc3ccc4[nH]ncc4c3c3c2CCCC3)c1
3. OB(O)c1cccc(-c2nc3ccc4[nH]ncc4c3c3c2CCCC3)c1
4. OB(O)c1csc(-c2nc3ccc4[nH]ncc4c3c3c2CCCC3)c1

1. 10 to 15%
2. Active
3. Active
4. Active

---

- assayed system: Rho-associated protein kinase 2 (Homo sapiens)
- protocol notes: Inhibition of active ROCK2 (R11-11G) (unknown origin) at 100 nM using S6K as substrate incubated for 3 hrs by ADP-Glo kinase assay relative to control
Active and inactive are the calls of the source. The rule behind the calls is not given here.
measure: inhibition

molecule: c1cc(-c2nc3ccc4[nH]ncc4c3c3c2CCCC3)cs1
assayed system: Rho-associated protein kinase 2 (Homo sapiens)
value: Active
--
molecule: OB(O)c1ccc(-c2nc3ccc4[nH]ncc4c3c3c2CCCC3)cc1F
assayed system: Rho-associated protein kinase 2 (Homo sapiens)
value: Active
--
molecule: COc1c(B(O)O)cccc1-c1nc2ccc3[nH]ncc3c2cc1C
assayed system: Rho-associated protein kinase 2 (Homo sapiens)
value: Active
--
molecule: OB(O)c1ccc(-c2nc3ccc4[nH]ncc4c3c3c2CCCC3)cc1
assayed system: Rho-associated protein kinase 2 (Homo sapiens)
value: Active
